src = ChEMBL document CHEMBL3044699

System: Triticum aestivum
Test: Pre-emergence herbicidal activity against Triticum aestivum (wheat) assessed as reduction in length of the first leaf at 50 mol/ha relative to untreated control
Assay type: functional
Design: scale not given: the % may be the effect or the level left
The source made the active and inactive calls. No cut-off for these calls is given here.
readout_label: Activity

INSERT INTO results (compound, tested_on, result) VALUES
  ('COCCNC(=O)c1ccc2c(c1)no[n+]2[O-]', 'Triticum aestivum', '2%'),
  ('COC(=O)N/N=C/c1no[n+]([O-])c1C', 'Triticum aestivum', '3%'),
  ('CCCCCCNC(=O)N/N=C/c1no[n+]([O-])c1C', 'Triticum aestivum', '3%'),
  ('[O-][n+]1onc2ccccc21 [BENZO[C][1,2,5]OXADIAZOLE 1-OXIDE]', 'Triticum aestivum', 'inactive'),
  ('[O-][n+]1onc(-c2ccccc2)c1CNc1ccc(Cl)cc1', 'Triticum aestivum', '1%'),
  ('O=Cc1c(-c2ccccc2)no[n+]1[O-]', 'Triticum aestivum', '1%'),
  ('O=C(NCCc1ccccc1)N/N=C/c1ccc2c(c1)no[n+]2[O-]', 'Triticum aestivum', '2%'),
  ('[O-][n+]1onc(-c2ccccc2)c1CN1CCN(c2ncccn2)CC1', 'Triticum aestivum', 'inactive'),
  ('O=C(O)c1ccc2no[n+]([O-])c2c1', 'Triticum aestivum', '1%'),
  ('COc1ccc(NCc2c(-c3ccccc3)no[n+]2[O-])cc1', 'Triticum aestivum', '1%'),
  ('O=C(Nc1ccc(Cl)cc1)c1ccc2c(c1)no[n+]2[O-]', 'Triticum aestivum', '3%'),
  ('CCCCNC(=O)c1ccc2c(c1)no[n+]2[O-]', 'Triticum aestivum', '3%'),
  ('NC(=S)N/N=C/c1c(-c2ccccc2)no[n+]1[O-]', 'Triticum aestivum', '2%'),
  ('Cc1ccc2no[n+]([O-])c2c1 [6-METHYLBENZO[C][1,2,5]OXADIAZOLE1-OXIDE]', 'Triticum aestivum', '3%'),
  ('O=C(c1ccc2c(c1)no[n+]2[O-])N1CCOCC1', 'Triticum aestivum', '3%');
